Field: Dmax. Provide a value for each of the molecules that follow.
system-tested: BRAF V600E (Homo sapiens, UniProt P15056, V600E)
Construct: endogenous C-terminal HiBiT fusion tag on BRAF V600E allele; endogenous in cells; host or cells: A375 clone 1F10 (CRISPR-Cas9 knock-in of the HiBiT tag; parental A375 from ATCC)
Sequence (P15056 whole entry V600E, the tested form may be a part): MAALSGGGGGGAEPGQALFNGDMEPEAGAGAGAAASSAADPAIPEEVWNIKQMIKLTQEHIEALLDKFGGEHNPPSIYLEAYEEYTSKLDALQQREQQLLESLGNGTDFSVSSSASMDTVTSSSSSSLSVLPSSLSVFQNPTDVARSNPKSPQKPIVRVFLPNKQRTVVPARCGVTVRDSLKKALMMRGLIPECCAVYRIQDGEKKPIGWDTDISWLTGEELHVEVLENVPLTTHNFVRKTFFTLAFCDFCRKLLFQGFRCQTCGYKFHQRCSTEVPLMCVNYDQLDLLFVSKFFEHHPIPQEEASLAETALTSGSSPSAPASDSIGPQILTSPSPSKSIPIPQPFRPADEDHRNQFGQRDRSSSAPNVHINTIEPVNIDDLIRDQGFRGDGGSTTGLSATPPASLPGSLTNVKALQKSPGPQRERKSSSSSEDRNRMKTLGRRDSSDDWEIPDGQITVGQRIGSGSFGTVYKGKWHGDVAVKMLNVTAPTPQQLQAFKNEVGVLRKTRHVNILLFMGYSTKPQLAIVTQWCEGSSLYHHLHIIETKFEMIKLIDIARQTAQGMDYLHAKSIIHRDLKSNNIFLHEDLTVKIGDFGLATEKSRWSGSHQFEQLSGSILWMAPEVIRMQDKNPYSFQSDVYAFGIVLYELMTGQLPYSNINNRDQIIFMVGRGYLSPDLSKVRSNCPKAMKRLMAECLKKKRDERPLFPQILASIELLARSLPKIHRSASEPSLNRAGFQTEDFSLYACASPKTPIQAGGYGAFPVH
test-name: BRAF HiBiT degradation assay, C-terminal HiBiT-tagged BRAF V600E A375 cells (clone 1F10), Nano-Glo HiBiT Lytic assay
Format: cell-based
assay-conditions: A-375; A375 (BRAF V600E); percentage protein degraded at maximal compound effect relative to DMSO

Could I get Dmax for every one of these entries?
1. CCCS(=O)(=O)Nc1cccc(-c2nc(C3CCN(C(=O)C4CN(C5CCN(c6ccc7c(c6)C(=O)N(C6CCC(=O)NC6=O)C7=O)CC5)C4)CC3)sc2-c2ccnc(N)n2)c1F (racemic) [Compound 242]
2. CCCS(=O)(=O)Nc1cccc(-c2nc(C3CCC4(CC3)CCN(C(=O)CN3CCN(c5ccc6c(c5)C(=O)N(C5CCC(=O)NC5=O)C6=O)CC3)CC4)sc2-c2ccnc(N)n2)c1F (racemic) [Compound 231]
3. CCN(C)S(=O)(=O)Nc1cccc(-c2nc(C(C)(C)C)sc2-c2ccnc(Nc3ccc(N4CCN(C(=O)CN5CCc6cc(C7CCC(=O)NC7=O)ccc6C5)CC4)c(F)c3)n2)c1F (racemic) [Compound 28]

### Response
> 70%
30 to 70%
> 70%

* * *

Field: DC50. Provide a value for each of the compounds that follow.
system-tested: BRAF G466V (Homo sapiens, UniProt P15056, G466V)
Construct: Horizon Discovery (HCT-116 BRAF−/− cells); host or cells: HCT-116 BRAF−/− cells, clone 8, lentiviral transduction
Sequence (P15056 whole entry G466V): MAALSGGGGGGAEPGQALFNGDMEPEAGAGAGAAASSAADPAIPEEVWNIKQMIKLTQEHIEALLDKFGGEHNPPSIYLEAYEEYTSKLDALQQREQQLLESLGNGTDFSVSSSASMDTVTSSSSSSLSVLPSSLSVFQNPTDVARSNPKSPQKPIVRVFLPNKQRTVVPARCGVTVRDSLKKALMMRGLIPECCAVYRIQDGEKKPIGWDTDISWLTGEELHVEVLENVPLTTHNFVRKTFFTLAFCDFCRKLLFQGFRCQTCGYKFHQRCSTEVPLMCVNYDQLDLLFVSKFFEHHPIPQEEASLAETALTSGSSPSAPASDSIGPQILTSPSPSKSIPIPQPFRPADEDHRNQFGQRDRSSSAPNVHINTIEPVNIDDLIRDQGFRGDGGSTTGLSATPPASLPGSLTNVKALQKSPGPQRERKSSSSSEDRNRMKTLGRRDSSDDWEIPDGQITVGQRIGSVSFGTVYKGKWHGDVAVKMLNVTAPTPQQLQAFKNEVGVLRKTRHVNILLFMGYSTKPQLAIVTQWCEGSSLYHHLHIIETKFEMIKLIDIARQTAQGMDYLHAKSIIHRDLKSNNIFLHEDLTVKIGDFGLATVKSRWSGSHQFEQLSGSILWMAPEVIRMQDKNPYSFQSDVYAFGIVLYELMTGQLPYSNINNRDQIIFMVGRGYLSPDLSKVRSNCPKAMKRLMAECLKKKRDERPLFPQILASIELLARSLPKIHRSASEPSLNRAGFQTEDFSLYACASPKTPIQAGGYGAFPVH
test-name: BRAF HiBiT degradation assay, C-terminal HiBiT-tagged BRAF G466V overexpressed in HCT-116 BRAF−/− cells (clone 8), Nano-Glo HiBiT Lytic assay
Assay type: cell-based
assay-conditions: BRAF G466V (Class 3), HCT-116 BRAF−/− cells; DC50 at 50% degradation

Some compounds with known DC50 results, for comparison:
C[C@@H]1CN(c2ccc(-n3cc(-c4cc(Cl)cc(NS(=O)(=O)N5CCCC5)c4F)c(-c4ccncc4)n3)nc2)CCN1CC1CCN(c2ccc(N3CCC(=O)NC3=O)cc2)CC1
< 10 nM
O=C1CCN(c2ccc(N3CCC(CN4CCN(c5ccc(-n6cc(-c7cc(Cl)cc(NS(=O)(=O)N8CC[C@@H](F)C8)c7F)c(-c7ccncc7)n6)cc5F)CC4)CC3)cc2)C(=O)N1
< 10 nM
O=C1CCN(c2ccc(N3CCC(CN4CCN(c5ccc(-n6cc(-c7cc(Cl)cc(NS(=O)(=O)N8CC[C@@H](F)C8)c7F)c(-c7ccncc7)n6)nc5)CC4)CC3)cc2)C(=O)N1
< 10 nM
O=C1CCN(c2ccc(N3CCC(CN4CCN(c5ccc(-n6cc(-c7cc(Cl)cc(NS(=O)(=O)C8CCCC8)c7F)c(-c7ccncc7)n6)cc5)CC4)CC3)nc2)C(=O)N1
< 10 nM
O=C1CC[C@H](c2ccc(N3CCC(CN4CCN(c5cnc(-n6cc(-c7cc(Cl)cc(NS(=O)(=O)N8CCCC8)c7F)c(-c7ccncc7)n6)nc5)CC4)CC3)cc2)C(=O)N1
< 10 nM

Could I get DC50 for every one of these entries?
1. CCN(C)S(=O)(=O)Nc1cc(Cl)cc(-c2cn(-c3ccc(N4CCN(CC5CCN(c6ccc(C7CCC(=O)NC7=O)cn6)CC5)CC4)cn3)nc2-c2ccncc2)c1F (racemic)
2. C[C@@H]1CN(c2ccc(-n3cc(-c4cc(Cl)cc(NS(=O)(=O)N5CCCC5)c4F)c(-c4ccncc4)n3)cc2)CCN1CC1CCN(c2ccc(C3CCC(=O)NC3=O)cn2)CC1 (mixture of isomers)
3. C[C@@H]1CN(c2ccc(-n3cc(-c4cc(Cl)cc(NS(=O)(=O)N5CCCC5)c4F)c(-c4ccncc4)n3)c(F)c2)C[C@@H](C)N1CC1CCN(c2ccc(C3CCC(=O)NC3=O)cn2)CC1 (mixture of isomers)
4. O=C1CC[C@H](c2ccc(N3CCC(CN4CCN(c5ccc(-n6cc(-c7cc(Cl)cc(NS(=O)(=O)N8CC[C@@H](F)C8)c7F)c(-c7ccncc7)n6)cc5F)CC4)CC3)cc2)C(=O)N1
5. O=C1CCN(c2ccc(N3CCC(CN4CCN(c5ccc(-n6cc(-c7cc(F)cc(NS(=O)(=O)N8CC[C@@H](F)C8)c7F)c(-c7ccncc7)n6)nc5)CC4)CC3)cc2)C(=O)N1

### Response
1: < 10 nM; 2: < 10 nM; 3: < 10 nM; 4: < 10 nM; 5: 10 to 50 nM
